- Read-out: Collagen III, COL3A1 (gene 1281)
- assay.comment: BSK_hDFCGF_CollagenIII: BioMAP Diversity Plus: hDFCGF Assay for Collagen III Biomarker Activity (AID 2283056)
- run.parameters: primary human foreskin fibroblasts; actives raise or lower the signal
Active and inactive are the calls of the source. How the source made its calls: active means hit-call score of the fitted dose curve at least 0.9, where 1 is the maximum; inactive means score below 0.9.
# valid calls are true for active, false for inactive; nothing else

What did the test return for `CC(C)CCCCCCOC(=O)c1ccc(C(=O)OCCCCCCC(C)C)c(C(=O)OCCCCCCC(C)C)c1` ? false

Assay result, entry `COc1cccc(-c2ccc(/C=C\CN3CCCCCC3)cc2Cl)c1` — outcome? true

Outcome logged for `CCCCCCc1ccc(O)cc1O` in this assay: true

Check the results log: what was the call for `COCCOCCOCCOC` ? false

Tell me the assay call for `CCN(C(=O)c1cc(C)cc(OC[C@H](C)Nc2ccncc2)c1)C(C)C` please. false

How was `C=CC(=C)CCC=C(C)C` classified in this test? false

What did this assay record as the result for `COC(=O)c1c(Cl)c(Cl)c(C(=O)OC)c(Cl)c1Cl` ? false
